Collected pKi values appear next to each entry.
biological target: D(2) dopamine receptor (Rattus norvegicus, UniProt P61169); assay: Displacement of [3H]neomonapride from dopamine D2 receptor in rat striatum
Sequence (P61169 whole entry): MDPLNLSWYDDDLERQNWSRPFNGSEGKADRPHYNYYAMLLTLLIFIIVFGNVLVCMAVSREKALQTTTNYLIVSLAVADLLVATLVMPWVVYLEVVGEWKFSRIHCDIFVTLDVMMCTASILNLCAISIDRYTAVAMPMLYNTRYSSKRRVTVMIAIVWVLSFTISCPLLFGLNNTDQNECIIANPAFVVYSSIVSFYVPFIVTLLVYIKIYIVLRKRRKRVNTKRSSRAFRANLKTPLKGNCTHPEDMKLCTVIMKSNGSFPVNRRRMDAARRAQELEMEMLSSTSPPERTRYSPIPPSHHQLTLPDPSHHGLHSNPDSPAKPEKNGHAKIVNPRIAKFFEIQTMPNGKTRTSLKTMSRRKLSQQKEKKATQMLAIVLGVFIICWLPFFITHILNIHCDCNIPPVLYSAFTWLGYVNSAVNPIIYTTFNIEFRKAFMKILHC
Scale note: pKi = -log10(concentration in M).

ITEM SMILES: CCCN1CCc2cc(OC)cc3c2[C@H]1Cc1ccc(O)c(O)c1-3
TESTED TARGET: D(2) dopamine receptor (Rattus norvegicus, UniProt P61169)
pKi: 8.89

ITEM SMILES: CCN1CCc2cc(OC)cc3c2[C@H]1Cc1cccc(O)c1-3
TESTED TARGET: D(2) dopamine receptor (Rattus norvegicus, UniProt P61169)
pKi: 7.55

ITEM SMILES: COc1cc2c3c(c1)-c1c(ccc(O)c1O)C[C@H]3N(C)CC2
TESTED TARGET: D(2) dopamine receptor (Rattus norvegicus, UniProt P61169)
pKi: 8.46

ITEM SMILES: CN1CCc2cccc3c2[C@H]1Cc1cccc(O)c1-3
TESTED TARGET: D(2) dopamine receptor (Rattus norvegicus, UniProt P61169)
pKi: 6.97

Kindly consider the entry below.
Look at this compound and give its reported pKi. COc1cc2c3c(c1)-c1c(O)cccc1C[C@H]3N(C)CC2
6.63
